# Tested on: Escherichia coli
# Method Notes: Antibacterial activity against Escherichia coli clinical isolate assessed as inhibition of bacterial growth incubated for 24 hrs
# Type: functional
Form field: log10(MIC) (one value per entry).
Remember, log10 of MIC, in µg/mL.

Before answering, review these 5 worked examples.
INSERT INTO results (smiles_entry, observed_result) VALUES
  ('CCCCCCCCn1cc(C(=O)O)c(=O)c2cc(F)c(CC(=O)O)cc21', 0.30),
  ('CCCn1cc(C(=O)O)c(=O)c2cc(F)c(CC#N)cc21', 0.90),
  ('N#CCc1cc2c(cc1F)c(=O)c(C(=O)O)cn2CC1CCCCC1', 2.41),
  ('N#CCc1cc2c(cc1F)c(=O)c(C(=O)O)cn2CC(=O)N1CCCCC1', 1.20),
  ('O=C(O)Cc1cc2c(cc1F)c(=O)c(C(=O)O)cn2C1CC1', 0.00);

Q. What value of measured log10(MIC) is listed for `Cn1cc(C(=O)O)c(=O)c2cc(F)c(CC#N)cc21` ?
A. 1.20

Q. How about this compound: `CCn1cc(C(=O)O)c(=O)c2cc(F)c(CC#N)c(F)c21`
A. 0.60

Q. Repeat for the following compound: `N#CCc1cc2c(cc1F)c(=O)c(C(=O)O)cn2Cc1cnc(Cl)s1`
A. 0.90

Q. Can you handle `N#CCc1cc2c(cc1F)c(=O)c(C(=O)O)cn2Cc1ccc([N+](=O)[O-])cc1` next?
A. 2.41

Q. # repeat for `N#CCc1cc2c(cc1F)c(=O)c(C(=O)O)cn2Cc1ccccc1`
A. 0.30

Q. Input `N#CCc1cc2c(cc1F)c(=O)c(C(=O)O)cn2Cc1ccccc1Cl`
A. -0.60
